Hey, just so you know, these numbers are from patent US20140288052A1.

- Assayed Target: UniProt:Q96EB6
- Procedure Details: TAMRA based mass spectrometry assay of SIRT1 deacetylase activation
- Type: biochemical
- Particulars: concentration that results in 150% activation of SIRT1; TAMRA peptide substrate
Attribute Measured: TAMRA EC1.5 (μM)

In the examples that follow, each entry is paired with its recorded TAMRA EC1.5 (μM).
{"Chemical String": "Cc1cnc(C(=O)Nc2ccnc3cc(-c4ccccc4C(F)(F)F)nn23)s1", "TAMRA EC1.5 (μM)": "C (EC1.5>25 μM)"}
{"Chemical String": "Cc1cnc(NC(=O)c2ccnn3cc(-c4cccc(F)c4)nc23)s1", "TAMRA EC1.5 (μM)": "C (EC1.5>25 μM)"}
{"Chemical String": "O=C(Nc1ccnc2cc(-c3ccccc3C(F)(F)F)nn12)c1ncccn1", "TAMRA EC1.5 (μM)": "A (EC1.5<1 μM)"}
{"Chemical String": "Cc1cnc(NC(=O)c2ccnn3cc(-c4ccccc4F)nc23)s1", "TAMRA EC1.5 (μM)": "C (EC1.5>25 μM)"}
{"Chemical String": "O=C(Nc1nccs1)c1ccnn2cc(-c3cccc(Cl)c3)nc12", "TAMRA EC1.5 (μM)": "C (EC1.5>25 μM)"}

The measured TAMRA EC1.5 (μM) associated with `O=C(Nc1ccnc2cc(-c3ccccc3C(F)(F)F)nn12)c1ncccc1F` reads A (EC1.5<1 μM)

The measured TAMRA EC1.5 (μM) associated with `O=C(Nc1ccncc1)c1cc(N2CCOCC2)nn2cc(-c3ccccc3Cl)nc12` reads C (EC1.5>25 μM)

The measured TAMRA EC1.5 (μM) associated with `O=C(Nc1ccnc2cc(-c3ccccc3C(F)(F)F)nn12)c1cccc(OC[C@H](O)CO)n1` reads A (EC1.5<1 μM)

The measured TAMRA EC1.5 (μM) associated with `O=C(Nc1cccnc1)c1cc(N2CCOCC2)nn2cc(-c3ccccc3F)nc12` reads C (EC1.5>25 μM)

The measured TAMRA EC1.5 (μM) associated with `O=C(Nc1ccccn1)c1cc(N2CCOCC2)nn2cc(-c3ccccc3F)nc12` reads C (EC1.5>25 μM)

----------
- Assayed Target: SIRT1 (Homo sapiens, UniProt Q96EB6)
- Procedure Details: TAMRA based mass spectrometry assay of SIRT1 deacetylase activation
- Assay type: biochemical
- Particulars: concentration that results in 150% activation of SIRT1; TAMRA peptide substrate
Attribute Measured: TAMRA EC1.5 (μM)

In the examples that follow, each entry is paired with its recorded TAMRA EC1.5 (μM).
{"Chemical String": "O=C(Nc1ccnc(N2CCOCC2)c1)c1ccnn2cc(-c3ccccc3Cl)nc12", "Assayed Target": "SIRT1 (Homo sapiens, UniProt Q96EB6)", "TAMRA EC1.5 (μM)": "B (EC1.5 1−25 μM)"}
{"Chemical String": "O=C(Nc1ccncc1)c1cc(N2CCOCC2)nn2cc(-c3cccc(F)c3)nc12", "Assayed Target": "SIRT1 (Homo sapiens, UniProt Q96EB6)", "TAMRA EC1.5 (μM)": "C (EC1.5>25 μM)"}
{"Chemical String": "O=C(Nc1cnccn1)c1ccnc2cc(-c3ccccc3C(F)(F)F)nn12", "Assayed Target": "SIRT1 (Homo sapiens, UniProt Q96EB6)", "TAMRA EC1.5 (μM)": "C (EC1.5>25 μM)"}
{"Chemical String": "O=C(Nc1ccccn1)c1cc(N2CCOCC2)nn2cc(-c3cccc(C(F)(F)F)c3)nc12", "Assayed Target": "SIRT1 (Homo sapiens, UniProt Q96EB6)", "TAMRA EC1.5 (μM)": "C (EC1.5>25 μM)"}
{"Chemical String": "O=C(Nc1cccnc1)c1cc(N2CCOCC2)nn2cc(-c3cccc(F)c3)nc12", "Assayed Target": "SIRT1 (Homo sapiens, UniProt Q96EB6)", "TAMRA EC1.5 (μM)": "C (EC1.5>25 μM)"}
{"Chemical String": "O=C(Nc1ccccn1)c1cc(N2CCOCC2)nn2cc(-c3ccccc3Cl)nc12", "Assayed Target": "SIRT1 (Homo sapiens, UniProt Q96EB6)", "TAMRA EC1.5 (μM)": "C (EC1.5>25 μM)"}

Form field TAMRA EC1.5 (μM) for item `Cc1cc(C)nc(C(=O)Nc2ccnc3cc(-c4ccccc4C(F)(F)F)nn23)c1` on SIRT1 (Homo sapiens, UniProt Q96EB6): A (EC1.5<1 μM)

Form field TAMRA EC1.5 (μM) for item `O=C(Nc1ccnc2cc(-c3ccccc3C(F)(F)F)nn12)c1ncc(F)cc1F` on SIRT1 (Homo sapiens, UniProt Q96EB6): A (EC1.5<1 μM)

Form field TAMRA EC1.5 (μM) for item `Cc1cnc(NC(=O)c2cc(N3CCOCC3)nn3cc(-c4cccc(Cl)c4)nc23)s1` on SIRT1 (Homo sapiens, UniProt Q96EB6): C (EC1.5>25 μM)

Form field TAMRA EC1.5 (μM) for item `Cc1nc(C(=O)Nc2ccnc3cc(-c4ccccc4C(F)(F)F)nn23)c(C)s1` on SIRT1 (Homo sapiens, UniProt Q96EB6): A (EC1.5<1 μM)

Form field TAMRA EC1.5 (μM) for item `O=C(Nc1nccs1)c1ccnn2cc(-c3ccccc3C(F)(F)F)nc12` on SIRT1 (Homo sapiens, UniProt Q96EB6): A (EC1.5<1 μM)

Form field TAMRA EC1.5 (μM) for item `O=C(Nc1ncccn1)c1ccnc2cc(-c3ccccc3C(F)(F)F)nn12` on SIRT1 (Homo sapiens, UniProt Q96EB6): B (EC1.5 1−25 μM)

----------
- Assayed Target: SIRT1 (Homo sapiens, UniProt Q96EB6)
- Sequence (Q96EB6 1-747): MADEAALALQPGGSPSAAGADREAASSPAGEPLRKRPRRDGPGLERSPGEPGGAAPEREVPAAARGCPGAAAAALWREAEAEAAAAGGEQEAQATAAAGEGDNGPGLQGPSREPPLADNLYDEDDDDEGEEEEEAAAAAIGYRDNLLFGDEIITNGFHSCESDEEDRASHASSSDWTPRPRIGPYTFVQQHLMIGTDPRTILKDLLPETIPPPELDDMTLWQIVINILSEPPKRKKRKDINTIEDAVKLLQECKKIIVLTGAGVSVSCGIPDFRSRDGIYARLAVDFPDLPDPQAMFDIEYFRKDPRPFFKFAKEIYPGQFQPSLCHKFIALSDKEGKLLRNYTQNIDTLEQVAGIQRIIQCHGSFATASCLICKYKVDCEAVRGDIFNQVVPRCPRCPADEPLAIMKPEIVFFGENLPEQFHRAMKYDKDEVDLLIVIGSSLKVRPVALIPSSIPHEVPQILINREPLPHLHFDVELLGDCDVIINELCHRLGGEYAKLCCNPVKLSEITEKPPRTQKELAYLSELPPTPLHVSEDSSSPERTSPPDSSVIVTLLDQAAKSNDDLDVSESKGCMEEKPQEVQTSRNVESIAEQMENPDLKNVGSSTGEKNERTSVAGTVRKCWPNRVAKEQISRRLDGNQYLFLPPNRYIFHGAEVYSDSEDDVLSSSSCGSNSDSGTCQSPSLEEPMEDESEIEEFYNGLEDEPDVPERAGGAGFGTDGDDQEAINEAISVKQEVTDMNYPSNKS
- Procedure Details: TAMRA based mass spectrometry assay of SIRT1 deacetylase activation
- Assay type: biochemical
- Particulars: percent maximum fold activation relative to control (100%); TAMRA peptide substrate
Attribute Measured: TAMRA % Fold Act

In the examples that follow, each entry is paired with its recorded TAMRA % Fold Act.
{"Molecule": "O=C(Nc1cccnc1)c1cc(N2CCOCC2)nn2cc(-c3ccccc3C(F)(F)F)nc12 [Compound 45]", "Assayed Target": "SIRT1 (Homo sapiens, UniProt Q96EB6)", "Reported Value": "A (Fold activation≧350%)"}
{"Molecule": "O=C(Nc1cccc(N2CCOCC2)n1)c1ccnn2cc(-c3ccccc3C(F)(F)F)nc12 [Compound 16]", "Assayed Target": "SIRT1 (Homo sapiens, UniProt Q96EB6)", "Reported Value": "A (Fold activation≧350%)"}
{"Molecule": "O=C(Nc1cccnc1)c1cc(N2CCOCC2)nn2cc(-c3cccc(C(F)(F)F)c3)nc12 [Compound 50]", "Assayed Target": "SIRT1 (Homo sapiens, UniProt Q96EB6)", "Reported Value": "B (Fold Activation<350%)"}
{"Molecule": "O=C(Nc1ccnc2cc(-c3ccccc3C(F)(F)F)nn12)c1cncnc1 [Compound 104]", "Assayed Target": "SIRT1 (Homo sapiens, UniProt Q96EB6)", "Reported Value": "B (Fold Activation<350%)"}
{"Molecule": "O=C(Nc1ccnc2cc(-c3ccccc3C(F)(F)F)nn12)c1cccc(N2CCC2)n1 [Compound 64]", "Assayed Target": "SIRT1 (Homo sapiens, UniProt Q96EB6)", "Reported Value": "B (Fold Activation<350%)"}
{"Molecule": "O=C(Nc1nccs1)c1cc(N2CCOCC2)nn2cc(-c3ccccc3C(F)(F)F)nc12 [Compound 42]", "Assayed Target": "SIRT1 (Homo sapiens, UniProt Q96EB6)", "Reported Value": "B (Fold Activation<350%)"}
{"Molecule": "O=C(Nc1ccnc2cc(-c3ccccc3C(F)(F)F)nn12)c1ccccn1 [Compound 59]", "Assayed Target": "SIRT1 (Homo sapiens, UniProt Q96EB6)", "Reported Value": "A (Fold activation≧350%)"}
{"Molecule": "O=C(Nc1ccncc1)c1cc(N2CCOCC2)nn2cc(-c3cccc(F)c3)nc12 [Compound 29]", "Assayed Target": "SIRT1 (Homo sapiens, UniProt Q96EB6)", "Reported Value": "B (Fold Activation<350%)"}

The measured TAMRA % Fold Act associated with O=C(Nc1ccnc2cc(-c3cccc(C(F)(F)F)c3)nn12)c1cccc(N2CCC2)n1 [Compound 98] reads B (Fold Activation<350%)

The measured TAMRA % Fold Act associated with O=C(Nc1ccnc2cc(-c3ccccc3C(F)(F)F)nn12)c1cccc(OC[C@H](O)CO)n1 [Compound 114] reads A (Fold activation≧350%)

The measured TAMRA % Fold Act associated with O=C(Nc1ccncc1)c1ccnc2cc(-c3ccccc3C(F)(F)F)nn12 [Compound 77] reads A (Fold activation≧350%)

The measured TAMRA % Fold Act associated with O=C(Nc1ccnc2cc(-c3ccccc3C(F)(F)F)nn12)c1cccc(N2CCOCC2)n1 [Compound 63] reads B (Fold Activation<350%)

The measured TAMRA % Fold Act associated with O=C(Nc1ccccn1)c1cc(N2CCOCC2)nn2cc(-c3ccccc3F)nc12 [Compound 39] reads B (Fold Activation<350%)

The measured TAMRA % Fold Act associated with Cn1cnc(C(=O)Nc2ccnc3cc(-c4cccc(C(F)(F)F)c4)nn23)c1 [Compound 96] reads B (Fold Activation<350%)

The measured TAMRA % Fold Act associated with O=C(Nc1cccnc1)c1ccnc2cc(-c3ccccc3C(F)(F)F)nn12 [Compound 76] reads A (Fold activation≧350%)

The measured TAMRA % Fold Act associated with O=C(Nc1ccncn1)c1ccnc2cc(-c3ccccc3C(F)(F)F)nn12 [Compound 78] reads A (Fold activation≧350%)

The measured TAMRA % Fold Act associated with Cc1cnc(NC(=O)c2ccnn3cc(-c4ccccc4C(F)(F)F)nc23)s1 [Compound 14] reads B (Fold Activation<350%)

The measured TAMRA % Fold Act associated with Cc1cnc(NC(=O)c2ccnc3cc(-c4cccc(C(F)(F)F)c4)nn23)s1 [Compound 88] reads B (Fold Activation<350%)

The measured TAMRA % Fold Act associated with O=C(Nc1cccc(N2CCOCC2)n1)c1ccnc2cc(-c3cccc(C(F)(F)F)c3)nn12 [Compound 90] reads B (Fold Activation<350%)

The measured TAMRA % Fold Act associated with O=C(Nc1ccccn1)c1cc(N2CCOCC2)nn2cc(-c3cccc(Cl)c3)nc12 [Compound 32] reads B (Fold Activation<350%)

The measured TAMRA % Fold Act associated with O=C(Nc1ccncc1)c1ccnc2cc(-c3cccc(C(F)(F)F)c3)nn12 [Compound 86] reads B (Fold Activation<350%)

The measured TAMRA % Fold Act associated with Cn1cnc(C(=O)Nc2ccnc3cc(-c4ccccc4C(F)(F)F)nn23)c1 [Compound 94] reads A (Fold activation≧350%)

The measured TAMRA % Fold Act associated with O=C(Nc1ccnc2cc(-c3ccccc3C(F)(F)F)nn12)c1nccs1 [Compound 93] reads B (Fold Activation<350%)

The measured TAMRA % Fold Act associated with Cc1cccc(C(=O)Nc2ccnc3cc(-c4ccccc4C(F)(F)F)nn23)n1 [Compound 109] reads A (Fold activation≧350%)

The measured TAMRA % Fold Act associated with O=C(Nc1ccncc1)c1cc(N2CCOCC2)nn2cc(-c3cccc(Cl)c3)nc12 [Compound 54] reads B (Fold Activation<350%)

The measured TAMRA % Fold Act associated with Cc1cnc(NC(=O)c2cc(N3CCOCC3)nn3cc(-c4cccc(C(F)(F)F)c4)nc23)s1 [Compound 48] reads B (Fold Activation<350%)
